Cited source for all entries: ChEMBL document CHEMBL1141481

Observed pKi values for C-C chemokine receptor type 2 (Homo sapiens) are listed in what follows.
Note on pKi: it is the negative log10 of concentration, concentration in mol/L.

Look over these answered cases.
O=C(NCCCCCN1CCC(c2c[nH]c3ccccc23)CC1)c1ccc(-c2ccccc2)cc1	5.26
O=C(NCCCCCN1CCC(c2c[nH]c3ccccc23)CC1)c1ccc(Br)cc1	5.14
O=C(/C=C/c1ccc(Br)cc1)NCCCCCN1CCC(c2c[nH]c3ccccc23)CC1	6.45

# get_value(readout= pKi, system= C-C chemokine receptor type 2 (Homo sapiens)) for `O=C(NCCCCCN1CCC(c2c[nH]c3ccccc23)CC1)Nc1ccc(Cl)c(Cl)c1`
5.79

# get_value(readout= pKi, system= C-C chemokine receptor type 2 (Homo sapiens)) for `CC(=O)Nc1ccc(/C=C/C(=O)NCCCCCN2CCC(c3c[nH]c4ccccc34)CC2)cc1`
4.89

# get_value(readout= pKi, system= C-C chemokine receptor type 2 (Homo sapiens)) for `O=C(/C=C/c1ccccc1Cl)NCCCCCN1CCC(c2c[nH]c3ccccc23)CC1`
5.35
